Hey, just so you know, these numbers are from ChEMBL document CHEMBL4325897.

- protocol-summary: Cytotoxicity against human KBV cells assessed as cell viability at 1.5 uM after 72 hrs by MTT assay relative to control
- Assay type: functional
- condition-description: read-out: Activity
measure: viability at 1.5 µM (%)
// units = %; emit number, no label

Guide cases for viability at 1.5 µM, answers given:
{"columns": ["compound", "viability at 1.5 µM (%)"],
 "data": [
  ["CC(=O)O[C@H]1C[C@@]2(C)[C@@H](C[C@@H](O)[C@H]3[C@@]4(C)CC[C@@H](OC(=O)c5nccnc5C(=O)O)[C@@H](C)[C@@H]4CC[C@@]32C)/C1=C(\\CCC=C(C)C)C(=O)OCc1ccccc1", 86],
  ["CC(=O)O[C@H]1C[C@@]2(C)[C@@H](C[C@@H](O)[C@H]3[C@@]4(C)CC[C@@H](O)[C@@H](C)[C@@H]4CC[C@@]32C)/C1=C(\\CCC=C(C)C)C(=O)O", 71],
  ["CC(=O)O[C@H]1C[C@@]2(C)[C@@H](C[C@@H](O)[C@H]3[C@@]4(C)CC[C@@H](OC(=O)CCN)[C@@H](C)[C@@H]4CC[C@@]32C)/C1=C(\\CCC=C(C)C)C(=O)OCc1ccccc1", 14]
]}

Input line: Quick one: give measured viability at 1.5 µM for "CC(=O)O[C@H]1C[C@@]2(C)[C@@H](C[C@@H](O)[C@H]3[C@@]4(C)CC[C@@H](OC(=O)CCC(=O)N5CCOCC5)[C@@H](C)[C@@H]4CC[C@@]32C)/C1=C(\CCC=C(C)C)C(=O)OCc1ccccc1"
Output line: 78

Input line: Quick one: give measured viability at 1.5 µM for "CC(=O)O[C@H]1C[C@@]2(C)[C@@H](C[C@@H](O)[C@H]3[C@@]4(C)CC[C@@H](OC(=O)CCCN)[C@@H](C)[C@@H]4CC[C@@]32C)/C1=C(\CCC=C(C)C)C(=O)OCc1ccccc1"
Output line: 98

Input line: Quick one: give measured viability at 1.5 µM for "CC(=O)O[C@H]1C[C@@]2(C)[C@@H](C[C@@H](O)[C@H]3[C@@]4(C)CC[C@@H](OC(=O)c5ccccc5C(=O)n5cccn5)[C@@H](C)[C@@H]4CC[C@@]32C)/C1=C(\CCC=C(C)C)C(=O)OCc1ccccc1"
Output line: 85

Input line: Quick one: give measured viability at 1.5 µM for "CC(=O)O[C@H]1C[C@@]2(C)[C@@H](C[C@@H](O)[C@H]3[C@@]4(C)CC[C@@H](OC(=O)CCC(=O)O)[C@@H](C)[C@@H]4CC[C@@]32C)/C1=C(\CCC=C(C)C)C(=O)OCc1ccccc1"
Output line: 72

Input line: Quick one: give measured viability at 1.5 µM for "CC(=O)O[C@H]1C[C@@]2(C)[C@@H](C[C@@H](O)[C@H]3[C@@]4(C)CC[C@@H](OC(=O)c5ccccc5C(=O)N5CCOCC5)[C@@H](C)[C@@H]4CC[C@@]32C)/C1=C(\CCC=C(C)C)C(=O)OCc1ccccc1"
Output line: 81

Input line: Quick one: give measured viability at 1.5 µM for "CC(=O)O[C@H]1C[C@@]2(C)[C@@H](C[C@@H](O)[C@H]3[C@@]4(C)CC[C@@H](OC(=O)CN)[C@@H](C)[C@@H]4CC[C@@]32C)/C1=C(\CCC=C(C)C)C(=O)OCc1ccccc1"
Output line: 97

Input line: Quick one: give measured viability at 1.5 µM for CC(=O)O[C@H]1C[C@@]2(C)[C@@H](C[C@@H](O)[C@H]3[C@@]4(C)CC[C@@H](OC(=O)C(C)N)[C@@H](C)[C@@H]4CC[C@@]32C)/C1=C(\CCC=C(C)C)C(=O)OCc1ccccc1 (some centres undefined)
Output line: 95

Input line: Quick one: give measured viability at 1.5 µM for CC(=O)O[C@H]1C[C@@]2(C)[C@@H](C[C@@H](O)[C@H]3[C@@]4(C)CC[C@@H](OC(=O)C(N)CC(C)C)[C@@H](C)[C@@H]4CC[C@@]32C)/C1=C(\CCC=C(C)C)C(=O)OCc1ccccc1 (some centres undefined)
Output line: 96

Input line: Quick one: give measured viability at 1.5 µM for "CC(=O)O[C@H]1C[C@@]2(C)[C@@H](C[C@@H](O)[C@H]3[C@@]4(C)CC[C@@H](OC(=O)c5ccccc5C(=O)n5ccnc5)[C@@H](C)[C@@H]4CC[C@@]32C)/C1=C(\CCC=C(C)C)C(=O)OCc1ccccc1"
Output line: 81

Input line: Quick one: give measured viability at 1.5 µM for "CC(=O)O[C@H]1C[C@@]2(C)[C@@H](C[C@@H](O)[C@H]3[C@@]4(C)CC[C@@H](OC(=O)c5ccccc5C(=O)O)[C@@H](C)[C@@H]4CC[C@@]32C)/C1=C(\CCC=C(C)C)C(=O)OCc1ccccc1"
Output line: 78
